Origin of values: ChEMBL document CHEMBL4219271

Tested on: A549
Experiment: Cytotoxicity against human A549 cells assessed as decrease in cell viability after 4 days by MTT assay
Format: functional, cell-based
Details: A549, 96 h
outcome_measure: IC50 (nM)
Field format: number, assumed nM, no unit text.

Consider the compound C=C1C[C@]23C[C@@]1(O)CC[C@H]2c1ccc(O)c(C)c1[C@@H]3Cn1cc(-c2ccc(C(F)(F)F)cc2)nn1 . State its measured IC50.
10400

Consider the compound C=C1C(=O)[C@]23C[C@@]1(O)CC[C@H]2c1ccc(OS(=O)(=O)c2ccc(C)cc2)c(C)c1[C@@H]3Cn1cc(-c2ccc(Br)cc2)nn1 . State its measured IC50.
1630

Consider the compound C=C1C(=O)[C@]23C[C@@]1(O)CC[C@H]2c1ccc(O)c(C)c1[C@@H]3Cn1cc(-c2ccc(OC)cc2)nn1 . State its measured IC50.
1250

Consider the compound C=C1C(=O)[C@]23C[C@@]1(O)CC[C@H]2c1ccc(OS(=O)(=O)c2ccc(C)cc2)c(C)c1[C@@H]3Cn1cc(-c2ccc(C)cc2)nn1 . State its measured IC50.
1830

----------
Please respond with reported pIC50 for every item in the list.
Test system: A549
Assay: Cytotoxicity against human A549 cells assessed as decrease in cell viability after 4 days by MTT assay
Type: functional, cell-based
Conditions: A549, 96 h
pIC50: −log10 of the molar value.

Consider the compound C=C1C[C@]23C[C@@]1(O)CC[C@@H]2c1cccc(C)c1[C@@H]3Cn1cc(-c2ccccc2)nn1 . State its measured pIC50.
< 4.70

Consider the compound C=C1C(=O)[C@]23C[C@@]1(O)CC[C@H]2c1ccc(OS(=O)(=O)c2ccc(C)cc2)c(C)c1[C@@H]3Cn1cc(-c2ccccn2)nn1 . State its measured pIC50.
5.64

Consider the compound C=C1C[C@]23C[C@@]1(O)CC[C@H]2c1ccc(O)c(C)c1[C@@H]3Cn1cc(-c2ccc(F)cc2)nn1 . State its measured pIC50.
< 4.70

Consider the compound C=C1C[C@]23C[C@@]1(O)CC[C@H]2c1ccc(OS(=O)(=O)c2ccc(C)cc2)c(C)c1[C@@H]3Cn1cc(-c2ccc(C)cc2)nn1 . State its measured pIC50.
< 4.70

----------
Test system: HL-60
Assay: Cytotoxicity against human HL60 cells assessed as decrease in cell viability after 4 days by MTT assay
Format: functional, cell-based
Conditions: HL-60, 96 h
Please respond with reported IC50 for every item in the list.
Field format: number, assumed µM, no unit text.

Consider the compound C=C1C(=O)[C@]23C[C@@]1(O)CC[C@H]2c1ccc(OS(=O)(=O)c2ccc(C)cc2)c(C)c1[C@@H]3Cn1cc(-c2ccc(C)cc2)nn1 . State its measured IC50.
1.11

Consider the compound C=C1C(=O)[C@]23C[C@@]1(O)CC[C@H]2c1ccc(OS(=O)(=O)c2ccc(C)cc2)c(C)c1[C@@H]3Cn1cc(-c2ccccn2)nn1 . State its measured IC50.
1.81

Consider the compound C=C1C[C@]23C[C@@]1(O)CC[C@H]2c1ccc(O)c(C)c1[C@@H]3Cn1cc(-c2ccc(C(F)(F)F)cc2)nn1 . State its measured IC50.
8.95

----------
Test system: A549
Assay: Cytotoxicity against human A549 cells assessed as decrease in cell viability after 4 days by MTT assay
Format: functional, cell-based
Settings: A549, 96 h
pIC50: −log10 of the molar value.
Please respond with reported pIC50 for every item in the list.

Consider the molecule C=C1C[C@]23C[C@@]1(O)CC[C@H]2c1ccc(O)c(C)c1[C@@H]3Cn1cc(-c2ccccc2)nn1 . State its measured pIC50.
< 4.70

Consider the molecule Cc1ccc(-c2cn(C[C@H]3c4c(ccc(OS(=O)(=O)c5ccc(C)cc5)c4C)[C@@H]4CC[C@@]5(C)C[C@]43CC5=O)nn2)cc1 . State its measured pIC50.
< 4.70

Consider the molecule C=C1C[C@]23C[C@@]1(O)CC[C@H]2c1cc(Br)c(O)c(C)c1[C@@H]3Cn1cc(-c2ccc(C(F)(F)F)cc2)nn1 . State its measured pIC50.
5.03
